Listed here are compounds together with their documented pEC50.
Target: Aβ1–42 (Homo sapiens, UniProt P05067)
Construct: Aβ1–42 (Adooq Bioscience, CA, USA)
Sequence (P05067 672-713 limits assumed): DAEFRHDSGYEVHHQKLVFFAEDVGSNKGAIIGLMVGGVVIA
Assay: Self-induced Aβ1–42 aggregation, thioflavin T (ThT) fluorescence assay
Conditions: 25 µM Aβ1–42; compound 0.3-27 µM; 37 °C, 48 h; ThT fluorescence; read-out: EC50 against self-induced Aβ1–42 aggregation
pEC50: −log10 of the molar value.
measurement-kind: pEC50

compound: O=C(OCc1ccc2c(Br)cc(Br)c(O)c2n1)N1CCN(C(=O)c2cc3ccccc3[nH]2)CC1 [Compound 18b]
measurement-kind: pEC50
prefix-operator: <
readout-number: 5.00
--
compound: COc1ccc2[nH]c(C(=O)N3CCN(C(=O)OCc4ccc5c(Cl)cc(Cl)c(O)c5n4)CC3)cc2c1 [Compound 18f]
measurement-kind: pEC50
prefix-operator: =
readout-number: 5.97
--
compound: O=C(OCc1ccc2cccc(O)c2n1)c1cc2ccccc2[nH]1 [Compound 7a]
measurement-kind: pEC50
prefix-operator: =
readout-number: 5.37
--
compound: O=C(OCc1ccc2c(Cl)cc(Cl)c(O)c2n1)c1cc2ccccc2[nH]1 [Compound 7b]
measurement-kind: pEC50
prefix-operator: =
readout-number: 5.03
--
compound: O=C(OCc1ccc2c(Cl)cc(Cl)c(O)c2n1)N1CCN(C(=O)c2cc3cc(F)ccc3[nH]2)CC1 [Compound 18g]
measurement-kind: pEC50
prefix-operator: <
readout-number: 5.00
--
compound: COc1ccc2[nH]c(C(=O)N3CCN(C(=O)OCc4ccc5c(Br)cc(Br)c(O)c5n4)CC3)cc2c1 [Compound 18e]
measurement-kind: pEC50
prefix-operator: =
readout-number: 5.60
--
compound: O=C(OCc1ccc2c(Cl)cc(Cl)c(O)c2n1)c1cc2cc(F)ccc2[nH]1 [Compound 7e]
measurement-kind: pEC50
prefix-operator: =
readout-number: 5.02
--
compound: COc1ccc2[nH]c(C(=O)N3CCN(C(=O)OCc4ccc5cccc(O)c5n4)CC3)cc2c1 [Compound 18d]
measurement-kind: pEC50
prefix-operator: =
readout-number: 5.83
--
compound: O=C(OCc1ccc2cccc(O)c2n1)N1CCN(C(=O)c2cc3cc(F)ccc3[nH]2)CC1 [Compound 18h]
measurement-kind: pEC50
prefix-operator: =
readout-number: 5.59
--
compound: O=C(OCc1ccc2cccc(O)c2n1)c1cc2cc(F)ccc2[nH]1 [Compound 7d]
measurement-kind: pEC50
prefix-operator: =
readout-number: 5.20
--
compound: COc1ccc2[nH]c(C(=O)OCc3ccc4cccc(O)c4n3)cc2c1 [Compound 7c]
measurement-kind: pEC50
prefix-operator: =
readout-number: 5.49
--
compound: O=C(O)c1cc2ccccc2[nH]1 [Compound 5a, 1H-indole-2-carboxylic acid, reference compound]
measurement-kind: pEC50
prefix-operator: <
readout-number: 4.70
--
compound: Oc1c(I)cc(Cl)c2cccnc12 [Compound 1, Clioquinol, reference compound]
measurement-kind: pEC50
prefix-operator: =
readout-number: 5.00
--
compound: O=C(OCc1ccc2cccc(O)c2n1)N1CCN(C(=O)c2cc3ccccc3[nH]2)CC1 [Compound 18a]
measurement-kind: pEC50
prefix-operator: <
readout-number: 5.00
--
compound: COc1ccc2[nH]c(C(=O)NCc3ccc4c(Cl)cc(Cl)c(O)c4n3)cc2c1 [Compound 12b]
measurement-kind: pEC50
prefix-operator: <
readout-number: 5.00
--
compound: O=C(NCc1ccc2c(Cl)cc(Cl)c(O)c2n1)c1cc2ccccc2[nH]1 [Compound 12a]
measurement-kind: pEC50
prefix-operator: <
readout-number: 5.00
--
compound: O=C(OCc1ccc2c(Cl)cc(Cl)c(O)c2n1)N1CCN(C(=O)c2cc3ccccc3[nH]2)CC1 [Compound 18c]
measurement-kind: pEC50
prefix-operator: =
readout-number: 5.76
